target: Glucose-6-phosphatase catalytic subunit 1 (Rattus norvegicus)
Sequence (P43428 whole entry): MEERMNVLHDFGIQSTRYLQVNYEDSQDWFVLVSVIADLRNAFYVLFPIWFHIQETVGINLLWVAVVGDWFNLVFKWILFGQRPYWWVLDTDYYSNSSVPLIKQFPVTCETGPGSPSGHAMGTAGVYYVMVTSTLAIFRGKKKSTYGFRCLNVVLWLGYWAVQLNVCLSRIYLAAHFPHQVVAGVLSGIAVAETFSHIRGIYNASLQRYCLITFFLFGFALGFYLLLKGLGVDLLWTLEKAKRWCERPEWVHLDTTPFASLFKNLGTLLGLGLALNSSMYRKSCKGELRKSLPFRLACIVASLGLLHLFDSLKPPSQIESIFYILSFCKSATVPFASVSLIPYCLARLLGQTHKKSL
assay remarks: Inhibition of glucose-6-phosphatase in rat H42E cells using glucose-6-phosphate as substrate preincubated overnight followed by substrate addition and measured after 40 mins
quantity name: IC50 (µM)
Output spec: scalar in µM, unitless text.

Note to self: IC50 of COc1cc(/C=C/C(=O)O[C@H]2[C@H](OC(C)=O)C[C@]3(C)[C@H]4CC=C5[C@H]6[C@](C(=O)O)(CC[C@@H](C)[C@@]6(C)O)CC[C@@]5(C)[C@]4(C)CC[C@H]3C2(C)C)ccc1O with Glucose-6-phosphatase catalytic subunit 1 (Rattus norvegicus) was 4.8

Values from ChEMBL document CHEMBL4411265
